Hello, the source for this data is ChEMBL document CHEMBL5625209, in case you need it.

ASSAY NAME: Metabolic stability in human plasma assessed as remaining compound measured upto 120 mins by LC-MS/MS analysis
Assay type: ADME, cell-free
EXPERIMENTAL SETUP: read-out: Stability
MEASUREMENT LABEL: remaining at 2 h (%)
Number only, in %; omit the unit.

QUERY: remaining at 2 h for `CC(C)(C)c1ccc(C(=O)NC(=S)Nc2ccc(NC(=O)c3ccc(C(C)(C)C)cc3)cc2)cc1` ?
RESULT: 64

====

ASSAY NAME: Selectivity index, ratio of CC50 for MDCK cells to EC50 for antiviral activity against Influenza A virus H1N1 (A/Puerto Rico/8/34) infected in MDCK cells
Type: toxicity, cell-based
EXPERIMENTAL SETUP: dog, read-out: Ratio CC50/EC50
Label condition met when selectivity ratio is at or above 400; otherwise label condition not met.

Please review the entries below; each comes with its answer.
QUERY: Say whether `CC(C)(C)c1ccc(C(=O)NC(=S)Nc2ccc3ccccc3n2)cc1` shows selectivity ratio of 400 or more.
RESULT: condition not met

QUERY: Reported selectivity ratio at or above 400? `CC(C)(C)c1ccc(C(=O)NC(=S)Nc2ccc(C(F)(F)F)cc2C(F)(F)F)cc1`
RESULT: condition not met

QUERY: Record `Cc1ccc(C(=O)Nc2ccc(NC(=S)NC(=O)c3ccc(C(C)(C)C)cc3)cc2)cc1` ; criterion: selectivity ratio no lower than 400. Met?
RESULT: condition met

QUERY: Is it the case that `CC(C)(C)c1ccc(C(=O)NC(=S)Nc2ccc(N)cc2)cc1` has selectivity ratio reaching or exceeding 400?
RESULT: condition met

Alright, here's another compound for you.
QUERY: Confirm if selectivity ratio reported for the compound `CC(C)(C)c1ccc(C(=O)NC(=S)Nc2c(Br)cccc2Br)cc1` is 400 or above.
RESULT: condition met

====

ASSAY NAME: Metabolic stability in human liver microsomes assessed as intrinsic clearance preincubated for 5 mins followed by NADPH addition and measured upto 45 mins by LC-MS analysis
Format: ADME, Microsome
EXPERIMENTAL SETUP: time < 50 min, read-out: CLH
MEASUREMENT LABEL: CLint scaled
Your answer should be a number followed by the unit of measure.

QUERY: CLint scaled lookup needed for O=C(c1ccc(F)cc1)C1CCN(CCn2c(=O)[nH]c3ccccc3c2=O)CC1 [KETANSERIN] , thanks.
RESULT: 46.7 mL/min/kg

Now for another entry.
QUERY: Fill in the blank: the reported CLint scaled of `CC(C)(C)c1ccc(C(=O)NC(=S)Nc2ccc(NC(=O)c3ccc(C(C)(C)C)cc3)cc2)cc1` is ____.
RESULT: 22.7 mL/min/kg

====

ASSAY NAME: Selectivity index, ratio of CC50 for MDCK cells to EC50 for antiviral activity against Influenza A virus H1N1 (A/Puerto Rico/8/34) infected in MDCK cells
Type: toxicity, cell-based
EXPERIMENTAL SETUP: dog, read-out: Ratio CC50/EC50
MEASUREMENT LABEL: selectivity ratio
# respond with the number and nothing more

Solved entries:
QUERY: Need selectivity ratio, item `CC(=O)Nc1ccc(NC(=S)NC(=O)c2ccc(C(C)C)cc2)cc1`
RESULT: 4.2

QUERY: Which selectivity ratio is reported for this compound? `CC(C)(C)c1ccc(C(=O)N2C(=O)CN(c3ccccc3F)C2=S)cc1`
RESULT: 7.1

QUERY: I'd like to know its selectivity ratio. The compound in question is `CC(C)(C)C(=O)Nc1ccc(NC(=S)NC(=O)c2ccc(C(C)(C)C)cc2)cc1`
RESULT: 5400

QUERY: Tell me the measured selectivity ratio of `COc1cccc(C(=O)Nc2ccc(NC(=S)NC(=O)c3ccc(C(C)(C)C)cc3)cc2)c1` , please.
RESULT: 3140

QUERY: Form field: reported selectivity ratio of `Cc1ncn(-c2ccc(NC(=S)NC(=O)c3ccc(C(C)(C)C)cc3)cc2)n1`
RESULT: 3.1

Further cases:
QUERY: I am curious: what selectivity ratio value has been reported for `CC(C)(C)c1ccc(C(=O)NC(=S)Nc2ccc(-n3cncn3)cc2)cc1` ?
RESULT: 77.1

QUERY: For the compound shown here, `CC(C)(C)c1ccc(C(=O)NC(=S)Nc2ccc(O)cc2)cc1` , give the reported selectivity ratio.
RESULT: 3880

====

ASSAY NAME: Metabolic stability in dog liver microsomes assessed as intrinsic clearance preincubated for 5 mins followed by NADPH addition and measured upto 45 mins by LC-MS analysis
Assay type: ADME, Canis lupus familiaris, Microsome
EXPERIMENTAL SETUP: time < 50 min, read-out: CLH
MEASUREMENT LABEL: CLint scaled
Express your answer as a number followed by its unit.

QUERY: Endpoint output: CLint scaled of `CC(C)(C)c1ccc(C(=O)NC(=S)Nc2ccc(NC(=O)c3ccc(C(C)(C)C)cc3)cc2)cc1` . Value?
RESULT: 55.1 mL/min/kg

More entries:
QUERY: Dear colleague, I am looking for the recorded CLint scaled of the following compound: `O=C(c1ccc(F)cc1)C1CCN(CCn2c(=O)[nH]c3ccccc3c2=O)CC1`
RESULT: 71.2 mL/min/kg

====

ASSAY NAME: Clearance in Sprague-Dawley rat at 3 mg/kg, iv measured up to 24 hrs by LC-MS analysis
Assay type: ADME, organism-based
EXPERIMENTAL SETUP: in vivo
MEASUREMENT LABEL: clearance
I'd appreciate it if you wrote the number followed by its unit.

QUERY: Look up clearance: `CC(C)(C)c1ccc(C(=O)NC(=S)Nc2ccc(O)cc2)cc1`
RESULT: 46.4 mL/min/kg

QUERY: Which clearance value belongs to `CC(C)(C)c1ccc(C(=O)NC(=S)Nc2ccc(NC(=O)c3ccc(C(C)(C)C)cc3)cc2)cc1` ?
RESULT: 2.29 mL/min/kg

====

ASSAY NAME: Cmax in Sprague-Dawley rat at 3 mg/kg, iv measured up to 24 hrs by LC-MS analysis
Assay type: ADME, organism-based
EXPERIMENTAL SETUP: in vivo
MEASUREMENT LABEL: Cmax (ng/mL)
Report the figure in ng/mL without appending any unit label.

QUERY: Consider the compound shown here: `CC(C)(C)c1ccc(C(=O)NC(=S)Nc2ccc(NC(=O)c3ccc(C(C)(C)C)cc3)cc2)cc1` What is its recorded Cmax?
RESULT: 41900

QUERY: Param item = `CC(C)(C)c1ccc(C(=O)NC(=S)Nc2ccc(O)cc2)cc1` ; retrieve measured Cmax.
RESULT: 2520

Now consider a different compound.
QUERY: // query Cmax value for entry `CCC(=O)Nc1ccc(NC(=S)NC(=O)c2ccc(C(C)(C)C)cc2)cc1`
RESULT: 3650

====

ASSAY NAME: Half life in Sprague-Dawley rat at 3 mg/kg, iv measured up to 24 hrs by LC-MS analysis
Assay type: ADME, organism-based
EXPERIMENTAL SETUP: in vivo
Entries and their half-life values follow.
Entry rule: numbers only, all in min.

Some solved cases for reference:
QUERY: Field request: half-life | item: `CCC(=O)Nc1ccc(NC(=S)NC(=O)c2ccc(C(C)(C)C)cc2)cc1`
RESULT: 51

QUERY: Value lookup for half-life; key = `CC(C)(C)c1ccc(C(=O)NC(=S)Nc2ccc(O)cc2)cc1`
RESULT: 30.6

In the following, a different compound is considered.
QUERY: Value lookup for half-life; key = `CC(C)(C)c1ccc(C(=O)NC(=S)Nc2ccc(NC(=O)c3ccc(C(C)(C)C)cc3)cc2)cc1`
RESULT: 221

====

Catalogue of AUC(0-t) at 24 h values
ASSAY NAME: AUC(0 to t) in Sprague-Dawley rat at 3 mg/kg, iv measured up to 24 hrs by LC-MS analysis
Assay type: ADME, organism-based
EXPERIMENTAL SETUP: in vivo
Give the value in ng·h/mL but do not write ng·h/mL after it.

QUERY: Recorded AUC(0-t) at 24 h of `CCC(=O)Nc1ccc(NC(=S)NC(=O)c2ccc(C(C)(C)C)cc2)cc1` , please.
RESULT: 1240

QUERY: Quick one: AUC(0-t) at 24 h of `CC(C)(C)c1ccc(C(=O)NC(=S)Nc2ccc(O)cc2)cc1` ?
RESULT: 1100

QUERY: Fill blank: measured AUC(0-t) at 24 h of the compound `CC(C)(C)c1ccc(C(=O)NC(=S)Nc2ccc(NC(=O)c3ccc(C(C)(C)C)cc3)cc2)cc1` is ____.
RESULT: 21900

====

ASSAY NAME: Selectivity index, ratio of CC50 for MDCK cells to EC50 for antiviral activity against Influenza A virus H1N1 (A/Puerto Rico/8/34) infected in MDCK cells
Type: toxicity, cell-based
EXPERIMENTAL SETUP: dog, read-out: Ratio CC50/EC50
Returns true if the recorded selectivity ratio is greater than or equal to 200, and false otherwise.

Previously resolved entries follow.
QUERY: Hi, just wondering whether `Cc1ccccc1NC(=S)NC(=O)c1ccc(C(C)(C)C)cc1` shows selectivity ratio of 200 or higher.
RESULT: true

QUERY: # bool: selectivity ratio of `CCCc1ccc(C(=O)Nc2ccc(NC(=S)NC(=O)c3ccc(C(C)(C)C)cc3)cc2)cc1` >= 200
RESULT: true

QUERY: Decide: is the reported value of selectivity ratio for `CC(C)(C)c1ccc(C(=O)NC(=S)Nc2ccc(NC(=O)c3ccc(F)cc3)cc2)cc1` equal to or greater than 200?
RESULT: true

QUERY: Could you verify whether the entry `CC(C)(C)c1ccc(C(=O)NC(=S)Nc2ccccc2F)cc1` shows selectivity ratio of no less than 200?
RESULT: true

QUERY: Dear colleague, could you confirm whether `COc1ccccc1NC(=S)NC(=O)c1ccc(C(C)(C)C)cc1` has selectivity ratio at or above 200?
RESULT: true

QUERY: Determine whether this compound has selectivity ratio no lower than 200: `CC(C)(C)c1ccc(C(=O)NC(=S)Nc2ccccc2Cl)cc1`
RESULT: true

QUERY: State whether the measured selectivity ratio reaches 200, counting equality as reaching it, for `CCCCCc1ccc(C(=O)Nc2ccc(NC(=S)NC(=O)c3ccc(C(C)(C)C)cc3)cc2)cc1`
RESULT: true

QUERY: Test whether the compound `CCCCc1ccc(C(=O)Nc2ccc(NC(=S)NC(=O)c3ccc(C(C)(C)C)cc3)cc2)cc1` records selectivity ratio of 200 or higher.
RESULT: true

QUERY: Is it the case that `CC(C)(C)c1ccc(C(=O)NC(=S)Nc2c(Cl)cc(Cl)cc2Cl)cc1` has selectivity ratio reaching or exceeding 200?
RESULT: false

QUERY: Given the entry `COc1ccccc1C(=O)Nc1ccc(NC(=S)NC(=O)c2ccc(C(C)(C)C)cc2)cc1` , answer whether its selectivity ratio meets or surpasses 200.
RESULT: true

New cases:
QUERY: I'd appreciate it if you could say whether `CCc1ccc(C(=O)Nc2ccc(NC(=S)NC(=O)c3ccc(C(C)(C)C)cc3)cc2)cc1` has selectivity ratio at least equal to 200.
RESULT: true

QUERY: Can `CC(C)(C)c1ccc(C(=O)NC(=S)Nc2ccc(NC(=O)c3ccccc3)cc2)cc1` be said to have selectivity ratio at or above 200?
RESULT: true

QUERY: Check if selectivity ratio >= 200 (inclusive). Item: `CC(C)(C)c1ccc(C(=O)NC(=S)Nc2c(Br)cc(Br)cc2Br)cc1`
RESULT: false

QUERY: Please tell me: is the compound `CCC(=O)Nc1ccc(NC(=S)NC(=O)c2ccc(C(C)(C)C)cc2)cc1` at or over 200 in terms of selectivity ratio?
RESULT: true

QUERY: State whether the measured selectivity ratio reaches 200, counting equality as reaching it, for `CC(C)(C)c1ccc(C(=O)NC(=S)Nc2cccc(F)c2)cc1`
RESULT: true

QUERY: In plain terms: is recorded selectivity ratio at least 200 for `CC(C)(C)c1ccc(C(=O)NC(=S)Nc2ccccc2Br)cc1` ?
RESULT: true

QUERY: Please check the record CC(=O)N[C@H]1[C@H]([C@H](O)[C@H](O)CO)OC(C(=O)O)=C[C@@H]1N=C(N)N [ZANAMIVIR] and state if its selectivity ratio is at or above 200.
RESULT: true

QUERY: selectivity ratio >= 200 for `CC(C)(C)c1ccc(C(=O)NC(=S)Nn2cnnc2)cc1` ?
RESULT: false
